Record form. Attribute: Population Mitotic Cells (%). Fill in for each entry.
Test system: HEK-293T
test: Multiplex assay against HEK293T
Format: toxicity, cell-based
experimental conditions: human, 12 h, 10 µM, compound concentration 10 uM, replicate 1
Answers are plain numbers, in %.

Recorded results for 3 molecules are shown here.
INSERT INTO measurements (molecule, quantity_kind, reported_value) VALUES
  ('O=C(O)Cc1ccccc1Nc1c(Cl)cccc1Cl', 'Population Mitotic Cells (%)', 69),
  ('CCOc1c2c(c(OCC)c3ncccc13)CN(c1ccc(CS(=O)(=O)NC(=O)Cc3ccccc3OC)cc1C)C2=O', 'Population Mitotic Cells (%)', 54),
  ('CN(C)c1ccnc2sc3c(=O)n(N4CCCCCC4)cnc3c12', 'Population Mitotic Cells (%)', 63);

Please go through the list and note Population Mitotic Cells (%) for each molecule.
1. O=C(NCC(=O)N1CC[C@H](N[C@H]2CC[C@@](O)(c3ccc(-c4ncccn4)cn3)CC2)C1)c1cccc(C(F)(F)F)c1
2. CC(C)(C)c1ccc(S(=O)(=O)Nc2ccc(Cl)cc2C(=O)c2cc[n+]([O-])cc2)cc1
3. Cc1ccc(C(C)(O)c2nc3ccccc3s2)c(C)c1 (stereo not drawn)
4. COc1cc(NC(=O)CCN2CCC(OC(=O)Nc3ccccc3-c3ccccc3)CC2)c(Cl)cc1CNC[C@H](O)c1ccc(O)c2[nH]c(=O)ccc12

1: 60; 2: 69; 3: 43; 4: 0

// recorded Population Mitotic Cells (%) for `C[C@H](NC(=O)c1c(C(F)F)nn(C)c1Oc1cccc(C(F)(F)F)c1)c1ccc(C(=O)O)cc1` : 61

###

Record form. Attribute: Population Apoptotic (%). Fill in for each entry.
System: Fibroblast
test: Multiplex assay against human fibroblast
Type: toxicity, cell-based
experimental conditions: 48 h, 1 µM, compound concentration 1 uM, replicate 2
Answers are plain numbers, in %.

Recorded results for 4 compounds are shown here.
INSERT INTO results (compound, subject_of_test, unit_string, reported_value) VALUES
  ('Cc1ccccc1C(=O)Nc1ccc(C(=O)N2CCCC(N(C)C)c3ccccc32)cc1.Cl (stereo unspecified)', 'Fibroblast', '%', 53),
  ('CC1(COc2ccc3c(c2)ncn3-c2ccc3cccc(N4CCC(N)CC4)c3n2)COC1 [CRENOLANIB]', 'Fibroblast', '%', 20),
  ('N[C@@]1(C(=O)O)CO[C@H]2[C@H](C(=O)O)[C@H]21 [LY-379268]', 'Fibroblast', '%', 50),
  ('CCCn1c(=O)c2[nH]c(C3CCCC3)nc2n(CCC)c1=O', 'Fibroblast', '%', 47);

Please go through the list and note Population Apoptotic (%) for each compound.
1. C[C@H]1[C@H]2CC[C@H]3[C@@H]4CC=C5C[C@@H](N(C)C)CC[C@]5(C)[C@H]4CC[C@]23CN1C [CONESSINE]
2. O=C(O)c1cc2ccccc2c(Cc2c(O)c(C(=O)O)cc3ccccc23)c1O [PAMOIC ACID]
3. O=C1COc2nccc(-c3ccccc3F)c2CN1Cc1cc(C(F)(F)F)cc(C(F)(F)F)c1
4. CC[C@H]1OC(=O)[C@H](C)[C@@H](O[C@H]2C[C@@](C)(OC)[C@@H](O)[C@H](C)O2)[C@H](C)[C@@H](O[C@@H]2O[C@H](C)C[C@H](N(C)C)[C@H]2O)[C@@]2(C)CC(C)=C(O2)[C@H](C)[C@@H](O)[C@]1(C)O

1. 47
2. 38
3. 31
4. 56

Please go through the list and note Population Apoptotic (%) for each compound.
1. Cc1ccc(C(C)(O)c2nc3ccccc3s2)c(C)c1 (stereo unspecified)
2. N#Cc1c(N)nc(SCc2csc(-c3ccc(Cl)cc3)n2)c(C#N)c1-c1ccc(OCCO)cc1 [CAPADENOSON]

[50, 69]
